# Tested on: olfactory system
# TEST SUMMARY: WUTC Odor Threshold Test (yes-no detection of odorant dilutions in water, signal detection analysis)
# Type: in vivo, human
# CONDITION CONTEXT: concentration 3, combined participant trials
Kindly return Criterion met if reported Mean A′ is no lower than 0.5; return Criterion not met if it is lower.

Study these solved cases before continuing.
[[record]]
compound = "CC(=O)OCCC(C)C [Isoamyl Acetate, isoamyl acetate]"
classification = "Criterion not met"

[[record]]
compound = "CC1=CCC2CC1C2(C)C (centres unmarked)"
classification = "Criterion met"

[[record]]
compound = "Cc1ccc(O)cc1"
classification = "Criterion met"


Request: Check if Mean A′ >= 0.5 (inclusive). Item: COc1cc(C=O)ccc1O
Response: Criterion met
